biological target: recombinant human PAI-1 (Homo sapiens); construct: purchased Molecular Innovations, Inc; experiment: Test Example 1: human PAI-1 inhibitory activity (tPA fluorogenic substrate, pH 7.5 Tris buffer); type: biochemical; conditions: Compound Concentration 25 μM; Tris buffer

molecule	system-under-test	measurement-units	inequality-sign	Inhibition Rate of PAI-1 Activity (%)
CC(C)(C)c1ccc(CN(C(=O)C(=O)O)c2ccc(Sc3ccc(OC(F)(F)F)cc3)cc2)cc1 [Compound 621]	recombinant human PAI-1 (Homo sapiens)	%	=	91
CCCOc1ccc(-c2ccc(OC(F)(F)F)cc2)cc1N(CCCc1ccccc1)C(=O)C(=O)O [Compound 234]	recombinant human PAI-1 (Homo sapiens)	%	=	96
CC(C)(C)c1ccc(CN(C(=O)C(=O)O)c2ccc(Oc3ccc(OC(F)(F)F)cc3)cc2)cc1 [Compound 132]	recombinant human PAI-1 (Homo sapiens)	%	=	82
CSc1ccc(-c2ccc(N(Cc3ccc(C(C)(C)C)cc3)C(=O)C(=O)O)cc2)cc1 [Compound 134]	recombinant human PAI-1 (Homo sapiens)	%	=	75
CC(C)(C)c1ccc(COc2ccc(OCc3ccc(OC(F)(F)F)cc3)cc2CCC(=O)O)cc1 [Compound 414]	recombinant human PAI-1 (Homo sapiens)	%	=	96
CC(C)(C)c1ccc(COc2ccc(-c3ccccc3)cc2/C=C/C(=O)O)cc1 [Compound 31]	recombinant human PAI-1 (Homo sapiens)	%	=	89
CC(C)(C)c1ccc(CN(C(=O)C(=O)O)c2ccc(-c3ccc(C(C)(C)C)cc3)cc2)cc1 [Compound 163]	recombinant human PAI-1 (Homo sapiens)	%	>	99
CC(C)(C)c1ccc(N(C(=O)C(=O)O)c2ccc(Oc3ccc(OC(F)(F)F)cc3)cc2)cc1 [Compound 165]	recombinant human PAI-1 (Homo sapiens)	%	=	96
CC(C)(C)c1ccc(CN(C(=O)C(=O)O)c2ccc(-c3ccc(C(F)(F)F)cc3)cc2)cc1 [Compound 145]	recombinant human PAI-1 (Homo sapiens)	%	=	74
CC(C)(C)c1ccc(N(C(=O)C(=O)O)c2ccccc2-c2ccc(OC(F)(F)F)cc2)cc1 [Compound 157]	recombinant human PAI-1 (Homo sapiens)	%	=	96
Cc1cc(C)cc(COc2ccc(-c3ccc(OC(F)(F)F)cc3)cc2CC(=O)O)c1 [Compound 11]	recombinant human PAI-1 (Homo sapiens)	%	=	99
CC(C)(C)c1ccc(CN(C(=O)C(=O)O)c2cccc(OCc3ccc(OC(F)(F)F)cc3)c2)cc1 [Compound 619]	recombinant human PAI-1 (Homo sapiens)	%	=	92
CC(C)(C)c1ccc(CN(C(=O)C(=O)O)c2ccc(-c3ccc(OC(F)(F)F)cc3)c(C(F)(F)F)c2)cc1 [Compound 166]	recombinant human PAI-1 (Homo sapiens)	%	=	84
O=C(O)CCc1cc(-c2ccc(OC(F)(F)F)cc2)ccc1OCc1ccc(Cl)cc1Cl [Compound 27]	recombinant human PAI-1 (Homo sapiens)	%	=	92
CC(C)(C)c1ccc(-c2ccc(OCc3ccccc3)c(/C=C/C(=O)O)c2)cc1 [Compound 47]	recombinant human PAI-1 (Homo sapiens)	%	=	91
CC(C)c1ccc(Oc2ccc(/C=C/C(=O)O)c(Oc3ccc(C(C)C)cc3)c2)cc1 [Compound 72]	recombinant human PAI-1 (Homo sapiens)	%	=	98
CC(C)(C)c1ccc(COc2ccc(Oc3ccc(OC(F)(F)F)cc3)cc2C=CC(=O)O)cc1 [Compound 95]	recombinant human PAI-1 (Homo sapiens)	%	=	96
O=C(O)C(=O)N(Cc1ccccc1)c1ccc(Oc2ccc(OC(F)(F)F)cc2)cc1 [Compound 154]	recombinant human PAI-1 (Homo sapiens)	%	=	20
O=C(O)/C=C/c1cc(-c2ccc(OC(F)(F)F)cc2)ccc1OCc1cccc(C(F)(F)F)c1 [Compound 57]	recombinant human PAI-1 (Homo sapiens)	%	=	82
CC(C)(C)c1ccc(COc2ccc(OCc3ccc(OC(F)(F)F)cc3)cc2/C=C/C(=O)O)cc1 [Compound 413]	recombinant human PAI-1 (Homo sapiens)	%	=	84
Cc1cc(-c2ccc(OC(F)(F)F)cc2)ccc1N(Cc1ccc(C(C)(C)C)cc1)C(=O)C(=O)O [Compound 146]	recombinant human PAI-1 (Homo sapiens)	%	=	90
CC(C)(C)c1ccc(CN(C(=O)C(=O)O)c2ccc(-c3ccc(OC(F)(F)F)cc3)cc2OC(F)(F)F)cc1 [Compound 151]	recombinant human PAI-1 (Homo sapiens)	%	=	90
O=C(O)C(=O)N(CCCCc1ccccc1)c1ccc(N2CCOCC2)c(-c2ccc(OC(F)(F)F)cc2)c1 [Compound 243]	recombinant human PAI-1 (Homo sapiens)	%	=	89
CC(C)(C)c1ccc(-c2ccc(OCc3ccccc3)c(CCC(=O)O)c2)cc1 [Compound 48]	recombinant human PAI-1 (Homo sapiens)	%	=	93
CSc1ccc(CN(C(=O)C(=O)O)c2ccc(-c3ccc(OC(F)(F)F)cc3)cc2)cc1 [Compound 160]	recombinant human PAI-1 (Homo sapiens)	%	=	68
CC(C)(C)c1ccc(-c2ccc(OCc3ccccc3OC(F)(F)F)c(CCC(=O)O)c2)cc1 [Compound 67]	recombinant human PAI-1 (Homo sapiens)	%	=	94
CCCCOc1ccc(-c2ccc(OC(F)(F)F)cc2)cc1N(CCCc1ccccc1)C(=O)C(=O)O [Compound 235]	recombinant human PAI-1 (Homo sapiens)	%	=	93
CCCCc1ccc(-c2ccc(OCc3ccc(C(C)(C)C)cc3)c(CCC(=O)O)c2)cc1 [Compound 43]	recombinant human PAI-1 (Homo sapiens)	%	=	94
O=C(O)C=Cc1cc(-c2ccc(OC(F)(F)F)cc2)ccc1Oc1ccc(OC(F)(F)F)cc1 [Compound 15]	recombinant human PAI-1 (Homo sapiens)	%	=	94
CC(C)(Nc1cc(-c2ccc(OC(F)(F)F)cc2)ccc1OCc1ccc(C(C)(C)C)cc1)C(=O)O [Compound 420]	recombinant human PAI-1 (Homo sapiens)	%	=	83
Cc1ccc(-c2ccc(OC(F)(F)F)cc2)cc1N(Cc1ccc(C(C)(C)C)cc1)C(=O)C(=O)O [Compound 136]	recombinant human PAI-1 (Homo sapiens)	%	=	79

* * *

target: recombinant human PAI-1 (Homo sapiens, UniProt P05121); construct: purchased Molecular Innovations, Inc; experiment: Test Example 2: human PAI-1 inhibitory activity (tPA fluorogenic substrate, pH 7.4 HEPES buffer); format: biochemical; settings: human PAI-1; compound concentration 0.1 μM
Sequence (P05121 24-402): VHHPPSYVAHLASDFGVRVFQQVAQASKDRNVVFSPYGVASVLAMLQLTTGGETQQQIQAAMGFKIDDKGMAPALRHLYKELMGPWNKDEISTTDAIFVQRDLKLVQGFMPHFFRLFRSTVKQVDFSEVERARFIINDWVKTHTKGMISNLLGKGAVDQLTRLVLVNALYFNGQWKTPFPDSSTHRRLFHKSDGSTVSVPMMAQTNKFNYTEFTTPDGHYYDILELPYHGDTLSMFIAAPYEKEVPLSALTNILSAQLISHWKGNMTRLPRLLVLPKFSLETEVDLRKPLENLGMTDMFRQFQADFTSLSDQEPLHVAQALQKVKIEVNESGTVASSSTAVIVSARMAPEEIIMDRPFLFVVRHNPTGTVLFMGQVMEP

compound	Inhibition Rate of PAI-1 Activity (%)
CC(C)(C)c1ccc(Oc2cc(OCC(=O)O)cc(-c3ccc(OC(F)(F)F)cc3)c2)cc1 [Compound 427]	1%
CC(C)c1ccc(-c2ccc(OCC(=O)O)c(Oc3ccc(C(C)(C)C)cc3)c2)cc1 [Compound 441]	9%
CSc1ccc(-c2ccc(OCC(=O)O)c(Oc3ccc(C(C)(C)C)cc3)c2)cc1 [Compound 448]	4%
CC(C)(C)c1ccc(Oc2ccc(Nc3ccc(OC(F)(F)F)cc3)cc2/C=C/C(=O)O)cc1 [Compound 431]	0%

* * *

Let's look at some molecules and their measured Inhibition Rate of PAI-1 Activity (%).
target: recombinant human PAI-1 (Homo sapiens); construct: purchased Molecular Innovations, Inc; experiment: Test Example 2: human PAI-1 inhibitory activity (tPA fluorogenic substrate, pH 7.4 HEPES buffer); type: biochemical; settings: human PAI-1; compound concentration 3 μM

test-smiles	Inhibition Rate of PAI-1 Activity (%)
CC(C)c1ccc(-c2ccc(/C=C/C(=O)O)c(Oc3ccc(C(C)(C)C)cc3)c2)cc1	>99%
CC(C)c1ccccc1Oc1cc(-c2ccc(OC(F)(F)F)cc2)ccc1OCC(=O)O	>99%
CCCCN(CC(=O)O)c1cc(-c2ccc(OC(F)(F)F)cc2)ccc1OCCCCc1ccccc1	98%
CC(C)(C)c1ccc(-c2ccc(/C=C/C(=O)O)c(Oc3ccc(OC(F)(F)F)cc3)c2)cc1	>99%
CC(C)(C)c1ccc(Oc2ccc(-c3ccc(OC(F)(F)F)cc3)cc2N(CCCCc2ccccc2)C(=O)C(=O)O)cc1	81%
O=C(O)/C=C/c1ccc(-c2ccc(OC(F)(F)F)cc2)cc1OCCCSc1ccccc1	>99%
CC(C)(C)c1ccc(Oc2ccc(Nc3ccc(OC(F)(F)F)cc3)cc2/C=C/C(=O)O)cc1	>99%
CCCCc1ccc(Oc2cc(-c3ccc(OC(F)(F)F)cc3)ccc2/C=C/C(=O)O)cc1	>99%
CCCN(CC(=O)O)c1cc(-c2ccc(OC(F)(F)F)cc2)ccc1Oc1ccc(C(C)(C)C)cc1	98%
O=C(O)CCCCCCCCOc1ccc(-c2ccc(OC(F)(F)F)cc2)cc1N(CCCCc1ccccc1)C(=O)C(=O)O	86%
O=C(O)C(=O)N(CCCCc1ccccc1)c1ccc(N2CCCC2)c(-c2ccc(OC(F)(F)F)cc2)c1	>99%
CC(C)(C)c1ccc(COc2ccc(NS(=O)(=O)c3ccc(OC(F)(F)F)cc3)cc2CCC(=O)O)cc1	98%
O=C(O)CCc1ccc(-c2ccc(OC(F)(F)F)cc2)cc1Oc1ccc(C(F)(F)F)cc1	>99%
CC(C)(C)c1ccc(Sc2cc(-c3ccc(OC(F)(F)F)cc3)ccc2C(=O)O)cc1	>99%
CC(C)(C)c1cccc(Oc2ccc(-c3ccc(OC(F)(F)F)cc3)cc2OCC(=O)O)c1	>99%
